Data credit: PubChem BioAssay

experiment: growth suppression of PTEN-deleted HCT116, pilot screen, cell-based, HCT116 clonal line, CellTiter-Glo (AID 824); settings: 60 h, at 10 µM, active compounds read low;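 also: 0% = 20 µM Hyamine control and 100% = vehicle cell control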
Records with an inconclusive call do not appear.
recorded-metric: viability (%)

>>> df
                                    molecule  units_of_measure  observed_result
 0  C=CCn1c(C(C)NC(=O)COC)nc2ccccc21 (configuration not stated)                 %             96.2
 1      COc1ccc(-c2nc(-c3ccc(Br)o3)no2)cc1OC                 %             78.6
 2  COC(=O)C1C2C=CC3(CN(c4ccc(Cl)c(F)c4)C(=O)C13)O2 (configuration not stated)                 %             91.8
 3  CCN(CC)CCCNC(=O)C1c2ccccc2C(=O)N(C)C1c1ccc(OC)cc1 (configuration not stated)                 %             97.3
 4                     Clc1ccc(NCn2cncn2)nc1                 %             93.5
 5  O=C(NCc1ccc(F)cc1)C1CCC(=O)N1CCc1ccccc1 (configuration not stated)                 %             93.2
 6             CCC(=O)Nc1nc2ccc3nc(C)sc3c2s1                 %             81.1
 7                Cc1sc2nc(SC(C)C)nc(N)c2c1C                 %              104
 8  Cc1cc(C(=O)CN2CC(C)OC(C)C2)c(C)n1-c1ccccc1 (configuration not stated)                 %             99.6
 9           O=c1[nH]cnc2c1sc(=S)n2-c1ccccc1                 %             97.1
10  COCCNC(=O)C1c2cc(OC)c(OC)cc2C(=O)N(C)C1c1cccnc1 (configuration not stated)                 %               92
11  Cn1c(C(=O)NCCN2CCCCCC2)cc2c(=O)n(C)c3ccccc3c21                 %             74.9

----------
test: RAM signaling pathway blockade in yeast – S. cerevisiae, Pdr1DBD-CYC8 efflux-inhibited sensitized strain, primary screen (AID 1298);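 also: 0% = DMSO untreated cells without growth and 100% = 10 µM 1-NA-PP1 full growth; higher means more yeast growth rescued from 5-FOA killing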; conditions: S. cerevisiae cbk1-as DSE1-URA3 strain, 5-FOA growth OD615, 2 d; at 50 µM; active compounds read high
Listed here: items and their measured RAM network inhibition.
recorded-metric: RAM network inhibition (%)

>>> df
                             molecule_smiles  units_of_measure  observed_result
 0  Cc1ccc(C(=O)Nc2cccc(C(=O)O)c2)cc1S(=O)(=O)N1CCCCC1                 %              0.1
 1             CCOC(=O)c1sc(NC(=O)C2CC2)cc1C                 %             0.98
 2                     Clc1ccc(NCn2cncn2)nc1                 %             3.18
 3           Cc1ccc2oc(Nc3nc(C)cc(C)n3)nc2c1                 %             0.61
 4  Cc1cc(C)n2nc(C(=O)Oc3ccc4c(c3)OCO4)nc2n1                 %             3.06
 5     CCCS(=O)(=O)n1nc(-c2ccc(OC)cc2OC)cc1N                 %             4.63
 6   COc1ccccc1N1CCN(c2cc(C)nc3nc(C)nn23)CC1                 %            -0.21
 7  CN(C)S(=O)(=O)c1ccc(C(=O)Nc2nc(-c3cccs3)cs2)cc1                 %             5.01
 8  Cc1ccc(-c2nc(CS(=O)(=O)CC(=O)N3CCCCCC3)c(C)o2)cc1                 %             4.22
 9  O=C(O)CCc1ccc(-c2cccs2)n1NC(=O)c1ccc(Cl)cc1                 %            -0.58
10  CCOC(=O)c1c(C)c(-c2ccccc2)n(CC(=O)N2CCN(C)CC2)c1C                 %             2.67
11               O=S(=O)(CCc1ccccc1)N1CCOCC1                 %             2.83

----------
assay: viability gain of MRP-1-high H69AR cells under doxorubicin, pilot screen, MRP-1 activator project, CellTiter-Glo, duplicate (AID 807); details: H69AR viability with doxorubicin, CellTiter-Glo luminescence; at 10 µM; active compounds read high;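 also: compound pretreatment 18-22 h then 72 h combined with doxorubicin; 0% = doxorubicin alone and 100% = vehicle without doxorubicin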
Listed here: items and their measured viability increase.
recorded-metric: viability increase (%)

                                    compound     recorded_metric  units_of_measure  observed_result
 0              CCOc1ccc(C(F)(F)F)cc1NC(C)=O  viability increase                 %            -3.24
 1  COC(=O)CC1Oc2ccccc2N(Cc2ccccc2)C1=O (stereo not drawn)  viability increase                 %            -0.13
 2      COC(=O)C(C(=O)OC)=C(/C=C/N(C)C)N(C)C  viability increase                 %            -0.39
 3  O=C(C1CCCN(c2nnc(-n3cccc3)s2)C1)N1CCN(c2ccccc2)CC1 (stereo not drawn)  viability increase                 %            -1.11
 4  CCOC(=O)C1CCN(S(=O)(=O)c2cccc3nonc23)CC1  viability increase                 %             0.01
 5  Cn1c(=O)[nH]c(=O)c2c1nc(N1CCC(Cc3ccccc3)CC1)n2Cc1ccccc1  viability increase                 %            -6.11
 6  N#Cc1c(SCC(N)=O)nc2c(c1-c1ccc(O)cc1)CCCC2  viability increase                 %            -1.33
 7      O=C(CC(c1ccccc1)c1ccccc1)Nc1ncn[nH]1  viability increase                 %             4.51
 8         Cc1ccc2oc(=O)n(CCOc3ccccc3Cl)c2c1  viability increase                 %             2.94
 9  COCc1cc(C)nc2sc(C(=O)N3CCN(c4ccccc4)CC3)c(N)c12  viability increase                 %             -0.4
10  CC1CN(CCC(=O)Nc2ccc3c(c2)CCC3)CC(C)O1 (stereo not drawn)  viability increase                 %            -0.55
11  COC(=O)C(C)Sc1nnc(Cc2cc(=O)[nH]c(=O)[nH]2)n1-c1ccc(OC)cc1 (stereo not drawn)  viability increase                 %             0.81
12  Cc1cc2cc(CCNC(=O)CC(C)(C)C)c(=O)[nH]c2cc1C  viability increase                 %            -0.18
13  COC(=O)C(CCSC)NC(=O)Cn1ncc2c(=O)oc3ccc(C)cc3c21 (stereo not drawn)  viability increase                 %            -3.14
14    COc1cc(NC(=O)c2cc(C(C)C)on2)cc(OC)c1OC  viability increase                 %            -1.85
15  CC1CCN(c2nc3ccccc3nc2C(C#N)S(=O)(=O)c2ccccc2)CC1 (stereo not drawn)  viability increase                 %            -2.55
16  Cc1ccc(N2CC(c3nc4ccccc4[nH]3)CC2=O)c(C)c1 (stereo not drawn)  viability increase                 %             0.06
17  CCOC(=O)C1CCN(CC(O)COc2ccc(C(C)(C)CC)cc2)CC1 (stereo not drawn)  viability increase                 %            -4.71
18      C=CCSc1nnc(-c2cc(Br)ccc2N)c(=O)[nH]1  viability increase                 %             0.99
19  CC1(C)CC(=O)c2sc(NC(=O)CN3C(=O)CCC3=O)nc2C1  viability increase                 %            -1.54
20     c1ccc2c(c1)CCN(c1nc3ccccc3n3cnnc13)C2  viability increase                 %            -8.63
21  COc1ccc(Cc2nnc(Nc3ccc(C)cc3C)[nH]c2=O)cc1  viability increase                 %            -1.16
22         COc1ccc(NC(=O)Nc2cccc3cccnc23)cc1  viability increase                 %            -4.59
